Measured property: melting point

>>> df
                                   compound  measured_property         result
0  CCCCC1(CCCC)CCc2c(OCc3ccccn3)cccc2C1O (stereo not given)      melting point  106 to 107 °C
1  CCCc1cc(C=Cc2ccc3ccccc3n2)cc(OCC(=O)O)c1      melting point    97 to 98 °C
2                     CCOC(=O)Cc1cc(O)ccc1F      melting point    85 to 87 °C
3  C[C@@H](NC(=O)c1cnc(-c2ccc(Cl)cc2)s1)[C@](O)(Cn1cncn1)c1ccc(F)cc1F      melting point  194 to 195 °C
4            COC(=O)c1cccc2c1Nc1cc(I)ccc1C2      melting point  108 to 110 °C
5  COC(=O)C1=C(C)NC(c2cnc(Cl)s2)=NC1c1ccc(F)cc1 (stereo not given)      melting point  175 to 178 °C
6            OCc1ccc2c(c1)ncn2-c1cccc(Br)c1      melting point  107 to 109 °C
7  N#Cc1cccc(CSc2nnc(-c3ccc4[nH]ncc4c3)o2)c1      melting point  172 to 173 °C
8  O=C(c1ccccc1)N1CCC2CC(O)(c3ccc(F)cc3)CCC2C1 (stereo not given)      melting point    84 to 85 °C

For the next question, use this compound.
*Q* Could you tell me which melting point is on file for CC(=O)N1N=C(c2ccncc2)OC1c1ccc(Cl)c([N+](=O)[O-])c1 (stereo not given) ?
*A* 122 °C
